experiment: ATG_NF_kB_CIS: Attagene CIS-FACTORIAL HepG2 Assay for human Nuclear Factor Kappa B (NF-kB) (AID 2282991); details: HepG2 Attagene cis-factorial NF-kB reporter mRNA; actives raise or lower the signal
Calls of active or inactive are those of the source. The calls were made as follows: active = hit-call score of the fitted dose curve at least 0.9, where 1 is the maximum; inactive = score below 0.9.
A correct response names exactly one class from active, inactive

Solved cases below.
{"compound": "CCCCC(CC)COP(=O)(OCC(CC)CCCC)OCC(CC)CCCC (stereo not drawn)", "answer.label": "inactive"}
{"compound": "CN(C)CCCN(C)CCCN(C)C", "answer.label": "inactive"}

Recorded call for O=C1OC(c2ccc(O)cc2)(c2ccc(O)cc2)c2ccccc21 ?
active
